- System: MALME-3M melanoma
- Protocol Summary: NCI-60 one-dose screen, 48 h
- Assay Conditions: 10 µM unless noted
Compounds without any hit were thinned out: in the full panel of roughly 83,000, 20% have a hit. Active and inactive are the calls of the source. The calls were made as follows: active = growth percent below 10; inactive = the rest.
Result category, one only: active, inactive

Test call for this compound, please: Cc1cnc(C(=O)NNc2nc3sc4c(c3c(=O)n2C)C(C)CCC4)cn1 (centres undefined)
active

Test call for this compound, please: COc1ccc(C(=O)C2C(c3ccc(OC)cc3)CN(C)C23C(=O)Nc2ccccc23)cc1 (centres undefined)
inactive

###

- Tested on: SK-OV-3 ovarian
- Protocol Summary: NCI-60 one-dose screen, 48 h
- Assay Conditions: 10 µM unless noted
Compounds without any hit were thinned out: in the full panel of roughly 83,000, 20% have a hit. The source made the active and inactive calls. How the source made its calls: active means growth percent below 10; inactive means the rest.
Result category, one only: active, inactive

Please review the entries below; each comes with its answer.
1) O=C1CNC(c2ccccc2)C(c2ccccc2)N1 (centres undefined)    inactive
2) N=C(N)c1ccc(-c2ccc(-c3cc(Cl)cc(Cl)c3)o2)o1    active

Okay, now this compound:
Test call for this compound, please: COC(=O)CCC(=O)C(=O)OC
active

Values from PubChem BioAssay (NCI)
